System: L1210 leukemia ip in BDF1 mice, survival T/C
experimental-details: NCI In Vivo Anticancer Drug Screen. Data for tumor model L1210 Leukemia (intraperitoneal) in B6D2F1 (BDF1) mice
condition-info: endpoint: mean survival time; dose: 150.0 mg/kg/injection; schedule: Q01DX001 (ip); vehicle: saline; higher = longer survival
Toxic doses and inconclusive results are not listed.
quantity-measured: T/C

# compound, T/C
measured = [
    ("CCCCCCC1N(Cc2ccccc2N(C)C)CCCN1Cc1ccccc1N(C)C", "94 % of control"),
    ("CCCCCNCCO", "105 % of control"),
]

Consider the additional compound presented here.
Data request: // lookup T/C for C=CC1(C)CCC2C(=CCC3C(C)(COC4OC(CO)C(O)C(O)C4O)C(O)CCC23C)C1 (stereo not drawn)
Data returned: 98 % of control
